- Assay: chemical genetic growth profiling, strain panel (AID 1159580);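 note: tested at 20 µM; growth read once vehicle control cultures reached saturation at 30 °C; 1 = growth at the plate median or of vehicle wells; lower values mean less growth of the strain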
- Test Settings: S. cerevisiae deletion strains, growth OD, locus YHR027C, strain rpn1, hits give low values
Among all 5,500 compounds or so, about 2,000 (36%) were called active. Inconclusive results (about 18%) are left out. Some of the results follow.
Experimental Endpoint: normalized growth
The reply should be a number, written without any unit.

What the record says about "CC(=O)Oc1ccccc1C(=O)O" : normalized growth is 1.02

What the record says about "O=C(O)c1cc(=O)c2c(Cl)cc(Cl)cc2[nH]1" : normalized growth is 1.02

What the record says about "NCCNCCNCCN" : normalized growth is 1

What the record says about CCc1cccc2c3c([nH]c12)C(CC)(CC(=O)O)OCC3 (configuration not stated) : normalized growth is 0.997

What the record says about CCCCCCCCCCCCCCCCCCOCC(O)CO (configuration not stated) : normalized growth is 0.998

What the record says about "CNS(=O)(=O)c1ccc(NC(=O)c2ccccc2C(=O)O)cc1" : normalized growth is 0.992

What the record says about CC(=O)[C@@]1(O)CCC2C3CCC4=CC(=O)CC[C@]4(C)C3CC[C@@]21C (some centres not stated) : normalized growth is 0.992

###

- Assay: chemical genetic growth profiling, strain panel (AID 1159580)
- Test Settings: S. cerevisiae deletion strains, growth OD, locus YBR023C, strain chs3, hits give low values
Among all 5,500 compounds or so, about 2,000 (36%) were called active. Another 18% or so got no clear call; they are omitted. The list shows a part of the results.
So I've got a bunch of compounds here, and I need their normalized growth values.
The reply should be a number, written without any unit.

What the record says about CC(=O)O[C@@H]1CC[C@]2(C)C3CC[C@]4(C)C(=O)CCC4C3CC[C@H]2C1 (stereo not given in full) : normalized growth is 0.98

What the record says about "CC[C@H]1OC(=O)[C@H](C)[C@@H](O[C@H]2C[C@@](C)(OC)[C@@H](O)[C@H](C)O2)[C@H](C)[C@@H](O[C@@H]2O[C@H](C)C[C@H](N(C)C)[C@H]2O)[C@](C)(O)C[C@@H](C)[C@@H]2N[C@@H](COCCOC)O[C@H]([C@H]2C)[C@]1(C)O" : normalized growth is 0.993

What the record says about "O=C(NC1CCCCC1)NC1CCCCC1" : normalized growth is 0.976

What the record says about CC(=O)O[C@H]1CC[C@]2(C)C3CC[C@@]4(C)C(CC5O[C@@]6(CCC(C)CO6)[C@@H](C)C54)C3CC[C@@H]2C1 (stereo not given in full) : normalized growth is 1.01

What the record says about "CN(C)C(=N)N=C(N)N" : normalized growth is 1.02

###

- Assay: chemical genetic growth profiling, strain panel (AID 1159580)
- Test Settings: S. cerevisiae deletion strains, growth OD, locus YOR265W, strain rbl2, hits give low values
Among all 5,500 compounds or so, about 2,000 (36%) were called active. Inconclusive results (about 18%) are left out. The list shows a part of the results. Where a SMILES comes first, the peptide text is derived from it. Side-chain parts run from the residue outwards. [ ]: non-standard residue; d: D form. The star is where a group is joined. X1 = CCC(C)C(N)C1=NC(C(=O)*)CS1; Orn = NCCC[CH](N)C(=O)O
Experimental Endpoint: normalized growth
The reply should be a number, written without any unit.

What the record says about "CC[C@H]1OC(=O)[C@H](C)[C@@H](O[C@H]2C[C@@](C)(OC)[C@@H](O)[C@H](C)O2)[C@H](C)[C@@H](O[C@@H]2O[C@H](C)C[C@H](N(C)C)[C@H]2O)[C@](C)(O)C[C@@H](C)[C@@H]2N[C@@H](COCCOC)O[C@H]([C@H]2C)[C@]1(C)O" : normalized growth is 0.996

What the record says about "CCC1(CC)C(=O)C=CNC1=O" : normalized growth is 0.996

What the record says about CCC(C)C(N)C1=NC(C(=O)NC(CC(C)C)C(=O)NC(CCC(=O)O)C(=O)NC(C(=O)NCCCCC2NC(=O)C(CC(N)=O)NC(=O)C(CC(=O)O)NC(=O)C(Cc3cnc[nH]3)NC(=O)C(Cc3ccccc3)NC(=O)C(C(C)CC)NC(=O)C(CCCN)NC2=O)C(C)CC)CS1 (stereo not drawn) (cyclo(DNK([Ile-Glu-Leu-X1])[Orn]IFH); configuration not given here) : normalized growth is 1.01

What the record says about "COc1cc(O)cc(OC)c1OC" : normalized growth is 0.96

What the record says about COc1cc2c(cc1OC)[C@@]13CCN4CC5=CCOC6CC(=O)N2C1[C@H]6[C@H]5C[C@H]43 (stereo not given in full) : normalized growth is 0.991

###

- Assay: chemical genetic growth profiling, strain panel (AID 1159580)
- Test Settings: S. cerevisiae deletion strains, growth OD, locus YDR388W, hits give low values
Among all 5,500 compounds or so, about 2,000 (36%) were called active. Not shown: some 18% with an inconclusive outcome. Some of the results follow.
Friendly reminder: normalized growth below 1 is 1.0, at or above is 0.0.

Task item: Quick check: does O=c1[nH]cnc2c1ncn2C1O[C@H](CO)[C@@H](O)[C@H]1O (some centres not stated) have normalized growth under 1?
Reply: 0.0

Task item: Quick check: does "CN1CCN(CCCN2c3ccccc3Sc3ccc(C(F)(F)F)cc32)CC1" have normalized growth under 1?
Reply: 1.0

###

- Assay: chemical genetic growth profiling, strain panel (AID 1159580);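 note: tested at 20 µM; growth read once vehicle control cultures reached saturation at 30 °C; 1 = growth at the plate median or of vehicle wells; lower values mean less growth of the strain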
- Test Settings: S. cerevisiae deletion strains, growth OD, locus YDL074C, strain BRE1, hits give low values
In all, about 5,500 compounds went through this assay and about 2,000 (36%) were called active. Not shown: some 18% with an inconclusive outcome. This is one part of the list.
Experimental Endpoint: normalized growth
The reply should be a number, written without any unit.

What the record says about C[C@]12CCC(=O)C=C1CCC1C2[C@@H](O)C[C@@]2(C)C1CC[C@]2(O)C(=O)COC(=O)CCC(=O)O (stereo partly drawn) : normalized growth is 1.01

What the record says about NC1C[C@H]1c1ccccc1 (stereo partly drawn) : normalized growth is 0.999

What the record says about C[C@]12CCC(=O)C=C1CCC1C2C(=O)C[C@@]2(C)C1CC[C@]2(O)C(=O)CO (stereo partly drawn) : normalized growth is 1.05

What the record says about "COc1cc(-c2coc3cc(O[C@@H]4O[C@H](CO)[C@@H](O)[C@H](O)[C@H]4O)c(OC)c(O)c3c2=O)cc(O)c1OC" : normalized growth is 1.08

What the record says about COC(=O)C[C@H]1C(C)(C)[C@@H](O)[C@@H]2CC3=C4C=C(OC)O[C@@H](c5ccoc5)[C@]4(C)CCC3[C@@]1(C)C2=O (stereo partly drawn) : normalized growth is 1.02

What the record says about "CC1=NN(c2ccccc2)C(=O)C1" : normalized growth is 0.912

What the record says about CCc1cccc2c3c([nH]c12)C(CC)(CC(=O)O)OCC3 (stereo not drawn) : normalized growth is 1.02

What the record says about C#CC1(O)CCC2C3CCC4=CC(=O)CCC4(C)C3CCC21C (stereo not drawn) : normalized growth is 1.01

###

- Assay: chemical genetic growth profiling, strain panel (AID 1159580);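 note: tested at 20 µM; growth read once vehicle control cultures reached saturation at 30 °C; 1 = growth at the plate median or of vehicle wells; lower values mean less growth of the strain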
- Test Settings: S. cerevisiae deletion strains, growth OD, locus YJL092W, strain hpr5, hits give low values
The campaign covered roughly 5,500 compounds. About 2,000 (36%) were called active. Roughly 18% stayed inconclusive and do not appear here. This is one part of the list.
So I've got a bunch of compounds here, and I need their normalized growth values.
The reply should be a number, written without any unit.

What the record says about Cc1onc(-c2ccccc2)c1C(=O)NC1C(=O)N2[C@@H]1SC(C)(C)[C@@H]2C(=O)O (stereo not given in full) : normalized growth is 1.02

What the record says about "NCCc1c[nH]c2ccccc12" : normalized growth is 0.963

What the record says about "CC(=O)OC[C@H]1O[C@@H](Oc2cc(OC(C)=O)c3c(=O)cc(-c4ccc(OC(C)=O)cc4)oc3c2)[C@H](OC(C)=O)[C@@H](OC(C)=O)[C@@H]1OC(C)=O" : normalized growth is 0.995

What the record says about "NCCc1cc(O)c(O)cc1O" : normalized growth is 0.953

What the record says about "CCC1(CC)C(=O)C=CNC1=O" : normalized growth is 0.992

###

So I've got a bunch of compounds here, and I need their normalized growth values.
- Assay: chemical genetic growth profiling, strain panel (AID 1159580);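 note: tested at 20 µM; growth read once vehicle control cultures reached saturation at 30 °C; 1 = growth at the plate median or of vehicle wells; lower values mean less growth of the strain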
- Test Settings: S. cerevisiae deletion strains, growth OD, locus YHR013C, strain ard1, hits give low values
Screen size: about 5,500 compounds; about 2,000 (36%) were called active. Roughly 18% stayed inconclusive and do not appear here. Some of the results follow. Where a SMILES comes first, the peptide text is derived from it. Side-chain parts run from the residue outwards. [ ]: non-standard residue; d: D form. The star is where a group is joined. X1 = CCC(C)C(N)C1=NC(C(=O)*)CS1; Orn = NCCC[CH](N)C(=O)O
The reply should be a number, written without any unit.

What the record says about "CCOc1ccc(C(=O)c2ccc(O)c(O)c2O)cc1" : normalized growth is 0.852

What the record says about COC(=O)C[C@H]1C(C)(C)[C@@H](O)[C@@H]2CC3=C4C=C(OC)O[C@@H](c5ccoc5)[C@]4(C)CCC3[C@@]1(C)C2=O (stereo partly drawn) : normalized growth is 1.01

What the record says about "O=C(CCBr)N1CCN(C(=O)CCBr)CC1" : normalized growth is 1.04

What the record says about "CCOc1ccc(C(=O)c2cc(O)c(OC)c(OC)c2O)cc1" : normalized growth is 0.985

What the record says about "CCOc1ccc(C(=O)c2ccc(OC)c(O)c2O)cc1" : normalized growth is 0.961

What the record says about "CC(=O)NO" : normalized growth is 0.888

What the record says about CC(C)CC1NC(=O)C(CCCN)NC(=O)C(C(C)C)NC(=O)C2CCCN2C(=O)C(Cc2ccccc2)NC(=O)C(CC(C)C)NC(=O)C(CCCN)NC(=O)C(C(C)C)NC(=O)C2CCCN2C(=O)C(Cc2ccccc2)NC1=O (stereo not drawn) (cyclo(FPV[Orn]LFPV[Orn]L); configuration not given here) : normalized growth is 1.1

What the record says about CCC(C)C(N)C1=NC(C(=O)NC(CC(C)C)C(=O)NC(CCC(=O)O)C(=O)NC(C(=O)NCCCCC2NC(=O)C(CC(N)=O)NC(=O)C(CC(=O)O)NC(=O)C(Cc3cnc[nH]3)NC(=O)C(Cc3ccccc3)NC(=O)C(C(C)CC)NC(=O)C(CCCN)NC2=O)C(C)CC)CS1 (stereo not drawn) (cyclo(DNK([Ile-Glu-Leu-X1])[Orn]IFH); configuration not given here) : normalized growth is 0.991

What the record says about "CCOc1ccc(NC(C)=O)cc1" : normalized growth is 1.06

What the record says about "COc1cc(NS(=O)(=O)c2ccc(N)cc2)ncn1" : normalized growth is 0.986

What the record says about "CN1CCN(CC(=O)N2c3ccccc3C(=O)Nc3cccnc32)CC1" : normalized growth is 1.03

What the record says about CO[C@H]1C[C@H](O[C@H]2[C@H](C)[C@@H](OC3O[C@H](C)C[C@H](N(C)C)[C@H]3OC(C)=O)[C@@H](C)C[C@]3(CO3)C(=O)[C@H](C)[C@@H](OC(C)=O)[C@@H](C)[C@@H](C)OC(=O)[C@@H]2C)O[C@@H](C)[C@@H]1OC(C)=O (stereo partly drawn) : normalized growth is 0.986

What the record says about CN1C(=O)CCS(=O)(=O)C1c1ccc(Cl)cc1 (stereo not drawn) : normalized growth is 0.982

Values compiled from PubChem BioAssay AID1159580.
